details: DDW group (daily diet with Deuterium Depleted Water); serum; 8 rats per lot
assayReadout: Sialic acid (average values) (mmol/L)
Answers are plain numbers, in mmol/L.

Name the recorded Sialic acid (average values) for O=P1(N(CCCl)CCCl)NCCCO1 (stereo not shown) [Cyclophosphamide] .
2.68

Name the recorded Sialic acid (average values) for COc1cccc2c1C(=O)c1c(O)c3c(c(O)c1C2=O)C[C@@](O)(C(=O)CO)C[C@@H]3O[C@H]1C[C@H](N)[C@@H](O)[C@H](C)O1 .
2.62

Name the recorded Sialic acid (average values) for O=c1[nH]cc(F)c(=O)[nH]1 .
2.43

Could you now consider this next compound?
Name the recorded Sialic acid (average values) for CC[C@]1(O)C[C@@H]2CN(CCc3c([nH]c4ccccc34)[C@@](C(=O)OC)(c3cc4c(cc3OC)N(C)[C@H]3[C@@](O)(C(=O)OC)[C@H](OC(C)=O)[C@]5(CC)C=CCN6CC[C@]43[C@@H]65)C2)C1 .
2.82

---

Kindly supply the reported Sialic acid (average values) values for the records listed here.
settings: TW-control group; serum; 8 rats per lot
Give bare numbers, in mmol/L.

Reference set, count: 3
Name the recorded Sialic acid (average values) for O=c1[nH]cc(F)c(=O)[nH]1 .
3.04

Name the recorded Sialic acid (average values) for COc1cccc2c1C(=O)c1c(O)c3c(c(O)c1C2=O)C[C@@](O)(C(=O)CO)C[C@@H]3O[C@H]1C[C@H](N)[C@@H](O)[C@H](C)O1 .
2.88

Name the recorded Sialic acid (average values) for O=P1(N(CCCl)CCCl)NCCCO1 (stereo not shown) [Cyclophosphamide] .
2.77

Further cases:
Name the recorded Sialic acid (average values) for CC[C@]1(O)C[C@@H]2CN(CCc3c([nH]c4ccccc34)[C@@](C(=O)OC)(c3cc4c(cc3OC)N(C)[C@H]3[C@@](O)(C(=O)OC)[C@H](OC(C)=O)[C@]5(CC)C=CCN6CC[C@]43[C@@H]65)C2)C1 .
3.00

---

Kindly supply the reported Percentage of decrease of protein glycolysis in animals receiving DDW values for the records listed here.
Assay: Measurement of protein, glycoprotein and serum protein glycolysis
Format: in vivo, Wistar rats
Details: DDW versus tap water
Description: The methods used for these measurements are well known (measuring burette and the (glucidic) glucose compound dosing in the reaction with orto-toluidine).
Answers are plain numbers, in %.

Reference set, count: 3
Name the recorded Percentage of decrease of protein glycolysis in animals receiving DDW for O=c1[nH]cc(F)c(=O)[nH]1 .
39

Name the recorded Percentage of decrease of protein glycolysis in animals receiving DDW for O=P1(N(CCCl)CCCl)NCCCO1 (stereo not shown) [Cyclophosphamide] .
17

Name the recorded Percentage of decrease of protein glycolysis in animals receiving DDW for CC[C@]1(O)C[C@@H]2CN(CCc3c([nH]c4ccccc34)[C@@](C(=O)OC)(c3cc4c(cc3OC)N(C)[C@H]3[C@@](O)(C(=O)OC)[C@H](OC(C)=O)[C@]5(CC)C=CCN6CC[C@]43[C@@H]65)C2)C1 .
7

Could you now consider this next molecule?
Name the recorded Percentage of decrease of protein glycolysis in animals receiving DDW for COc1cccc2c1C(=O)c1c(O)c3c(c(O)c1C2=O)C[C@@](O)(C(=O)CO)C[C@@H]3O[C@H]1C[C@H](N)[C@@H](O)[C@H](C)O1 .
35
